assay.details: pharmacokinetic behavior in baboons, 20 mg/kg (Tables 4 and 6)
Type: in vivo
recorded.conditions: baboon, plasma, 20 mg/kg, 360 minutes, read-out: plasma concentration
Give satisfied when the value for concentration at 6 h is at least 80 µg/mL. Give not satisfied when it is less.

>  <molecule>
CC(C)(O/N=C(\C(=O)NC1C(=O)N2C(C(=O)O)=C(COC(=O)c3ccc(NC(=O)C(N)CCN)c(O)c3)CSC12)c1csc(N)n1)C(=O)O (stereo not drawn)

>  <label>
satisfied

$$$$
>  <molecule>
CC(C)(O/N=C(\C(=O)NC1C(=O)N2C(C(=O)O)=C(COC(=O)c3ccc(NC(=O)[C@@H](N)CCCN)c(O)c3)CSC12)c1csc(N)n1)C(=O)O (stereo partly drawn)

>  <label>
satisfied

$$$$
>  <molecule>
CC(C)(ON=C(C(=O)NC1C(=O)N2C(C(=O)O)=C(COC(=O)c3ccc(NC(=O)CCN)cc3)CSC12)c1csc(N)n1)C(=O)O (stereo not drawn) [Product B, reference compound]

>  <label>
not satisfied

$$$$
>  <molecule>
CC(C)(O/N=C(\C(=O)NC1C(=O)N2C(C(=O)O)=C(COC(=O)c3ccc(NC(=O)CCN)c(O)c3)CSC12)c1csc(N)n1)C(=O)O (stereo not drawn)

>  <label>
not satisfied

$$$$

Turning now to a further record.
Exercise: Kindly determine if concentration at 6 h recorded for CC(C)(ON=C(C(=O)NC1C(=O)N2C(C(=O)O)=C(COC(=O)c3ccc(NC(=O)CN)cc3)CSC12)c1csc(N)n1)C(=O)O (stereo not drawn) [Product A, reference compound] is above or exactly 80 µg/mL.
Key: not satisfied

###

assay.details: pharmacokinetic behavior in baboons, 20 mg/kg (Tables 4 and 6)
Format: in vivo
recorded.conditions: baboon, urine, 20 mg/kg, 6 h (Table 6), read-out: Excretion in the urine
Kindly return YES if reported dose excreted at 6 h is no lower than 20%; return NO if it is lower.

Answered examples (5):
>  <molecule>
CC(C)(ON=C(C(=O)NC1C(=O)N2C(C(=O)O)=C(COC(=O)c3ccc(NC(=O)CCN)cc3)CSC12)c1csc(N)n1)C(=O)O (stereo not drawn) [Product B, reference compound]

>  <label>
NO

$$$$
>  <molecule>
CC(C)(ON=C(C(=O)NC1C(=O)N2C(C(=O)O)=C(COC(=O)c3ccc(NC(=O)CN)cc3)CSC12)c1csc(N)n1)C(=O)O (stereo not drawn) [Product A, reference compound]

>  <label>
YES

$$$$
>  <molecule>
CC(C)(O/N=C(\C(=O)NC1C(=O)N2C(C(=O)O)=C(COC(=O)c3ccc(NC(=O)CCN)c(O)c3)CSC12)c1csc(N)n1)C(=O)O (stereo not drawn) [SR 43904]

>  <label>
NO

$$$$
>  <molecule>
CC(C)(O/N=C(\C(=O)NC1C(=O)N2C(C(=O)O)=C(COC(=O)c3ccc(NC(=O)[C@@H](N)CCCN)c(O)c3)CSC12)c1csc(N)n1)C(=O)O (stereo partly drawn) [SR 44128]

>  <label>
YES

$$$$
>  <molecule>
CC(C)(O/N=C(\C(=O)NC1C(=O)N2C(C(=O)O)=C(COC(=O)c3ccc(NC(=O)C(N)CCN)c(O)c3)CSC12)c1csc(N)n1)C(=O)O (stereo not drawn) [SR 44130]

>  <label>
YES

$$$$

Consider the additional molecule presented here.
Exercise: Does the molecule CC(C)(O/N=C(\C(=O)NC1C(=O)N2C(C(=O)O)=C(COC(=O)c3ccc(NC(=O)CN)c(O)c3)CSC12)c1csc(N)n1)C(=O)O (stereo not drawn) [SR 43753] have recorded dose excreted at 6 h that is 20% or more?
Key: NO

Each recorded value in this set is attributed to patent US5079241A.
